- target desc: human progesterone receptor A (PR-A) (Homo sapiens, UniProt P06401)
- Construct: expressed in transfected cells; host or cells: SK-N-MC human neuroblastoma cells, stably transfected with pRChPR-A-neo and pMMTV-LUC
- method notes: Progesterone receptor-antagonistic action in stable transfectants of SK-N-MC cells with human PR-A and MTV-LUC reporter
- Assay type: cell-based
recorded endpoint: IC50 (nM)
// units = nM; emit number, no label

Recorded result, Cc1ccc(S(=O)(=O)N=S(C)(=O)c2ccc([C@H]3C[C@@]4(C)C(CC[C@@]4(O)C(F)(F)C(F)(F)F)C4CCC5=CC(=O)CCC5=C43)cc2)cc1 (mixture of isomers) , IC50: 1

* * *

- target desc: human progesterone receptor B (PR-B) (Homo sapiens)
- Construct: expressed in transfected cells; host or cells: SK-N-MC human neuroblastoma cells, stably transfected with pRChPR-B-neo and pMMTV-LUC
- method notes: Progesterone receptor-antagonistic action in stable transfectants of SK-N-MC cells with human PR-B and MTV-LUC reporter
- Format: cell-based
- From the text: Progesterone Receptor-Antagonistic Action in Stable Transfectants of Human Neuroblastoma Cells (SK-N-MC Cells) with the Human Progesterone A or Progesterone B Receptor and an MTV-LUC Reporter Construct […]
recorded endpoint: IC50 (nM)
// units = nM; emit number, no label

Recorded result, Cc1ccc(S(=O)(=O)N=S(C)(=O)c2ccc([C@H]3C[C@@]4(C)C(CC[C@@]4(O)C(F)(F)C(F)(F)F)C4CCC5=CC(=O)CCC5=C43)cc2)cc1 (mixture of isomers) [Example 7] , IC50: 0.8

* * *

- target desc: human progesterone receptor A (PR-A) (Homo sapiens, UniProt P06401)
- Construct: expressed in transfected cells; host or cells: SK-N-MC human neuroblastoma cells, stably transfected with pRChPR-A-neo and pMMTV-LUC
- Sequence (P06401 1-769 isoform P06401-2): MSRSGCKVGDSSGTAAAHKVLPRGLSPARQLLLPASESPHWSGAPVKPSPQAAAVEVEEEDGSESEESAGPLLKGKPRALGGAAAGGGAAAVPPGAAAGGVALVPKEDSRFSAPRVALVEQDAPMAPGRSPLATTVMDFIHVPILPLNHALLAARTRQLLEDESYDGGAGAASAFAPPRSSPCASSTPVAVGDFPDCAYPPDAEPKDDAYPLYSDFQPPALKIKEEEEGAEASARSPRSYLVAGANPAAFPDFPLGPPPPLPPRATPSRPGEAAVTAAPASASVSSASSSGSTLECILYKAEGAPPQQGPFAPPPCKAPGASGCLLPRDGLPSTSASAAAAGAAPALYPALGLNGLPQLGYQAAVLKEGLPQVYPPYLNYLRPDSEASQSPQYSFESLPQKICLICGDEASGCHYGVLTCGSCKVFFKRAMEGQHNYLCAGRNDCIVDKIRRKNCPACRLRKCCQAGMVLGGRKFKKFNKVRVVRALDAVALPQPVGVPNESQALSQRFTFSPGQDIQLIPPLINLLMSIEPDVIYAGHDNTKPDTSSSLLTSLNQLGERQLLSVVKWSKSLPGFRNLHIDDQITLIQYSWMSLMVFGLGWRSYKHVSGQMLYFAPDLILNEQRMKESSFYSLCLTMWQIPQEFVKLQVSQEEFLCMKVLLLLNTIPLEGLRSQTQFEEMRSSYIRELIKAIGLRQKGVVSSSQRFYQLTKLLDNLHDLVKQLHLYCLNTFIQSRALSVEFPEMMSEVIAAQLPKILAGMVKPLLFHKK
- method notes: Progesterone receptor-antagonistic action in stable transfectants of SK-N-MC cells with human PR-A and MTV-LUC reporter
- Assay type: cell-based
- study conditions: antagonistic activity against 0.1 nmol/l promegestone, SK-N-MC cells, 24 hours, LUC reporter; read-out: Progesterone receptor A (PR-A) Potency IC50
recorded endpoint: log10(IC50) (log10 of the value in nM)
Kindly note that the scale is log10 and the underlying IC50 is in nM.

Field: example entries. Status: answers known.
C[C@]12C[C@H](c3ccc(S(C)(=N)=O)cc3)C3=C4CCC(=O)C=C4CCC3C1CC[C@@]2(O)C(F)(F)C(F)(F)F (some centres unmarked) [Example 8]; -0.05
C[C@]12C[C@H](c3ccc(-c4ccc(S(C)(=N)=O)cc4)cc3)C3=C4CCC(=O)C=C4CCC3C1CC[C@@]2(O)C(F)(F)C(F)(F)F (some centres unmarked) [Example 12]; -1.10
Cc1ccc(S(=O)(=O)N=S(C)(=O)c2ccc(-c3ccc([C@H]4C[C@@]5(C)C(CC[C@@]5(O)C(F)(F)C(F)(F)F)C5CCC6=CC(=O)CCC6=C54)cc3)cc2)cc1 (mixture of isomers) [Example 11]; -2.00

Recorded result, C[C@]12C[C@H](c3ccc(SCc4ccccc4)cc3)C3=C4CCC(=O)C=C4CCC3C1CC[C@@]2(O)C(F)(F)C(F)(F)F (some centres unmarked) [Example 6] , log10(IC50): -0.70

Recorded result, CCS(=O)(=O)c1ccc([C@H]2C[C@@]3(C)C(CC[C@@]3(O)C(F)(F)C(F)(F)F)C3CCC4=CC(=O)CCC4=C32)cc1 (some centres unmarked) [Example 5] , log10(IC50): -1.00

Recorded result, C[C@]12C[C@H](c3ccc(-c4ccc(S)cc4)cc3)C3=C4CCC(=O)C=C4CC[C@H]3[C@@H]1CC[C@@]2(O)C(F)(F)C(F)(F)F [Example 13] , log10(IC50): -1.14

Recorded result, C[S+]([O-])c1ccc([C@H]2C[C@@]3(C)[C@@H](CC[C@@]3(O)C(F)(F)C(F)(F)F)[C@@H]3CCC4=CC(=O)CCC4=C32)cc1 (mixture of isomers) [Example 3] , log10(IC50): -0.96

Recorded result, C[C@]12C[C@H](c3ccc(S(C)(=O)=O)cc3)C3=C4CCC(=O)C=C4CC[C@H]3[C@@H]1CC[C@@]2(O)C(F)(F)C(F)(F)F [Example 4] , log10(IC50): -1.02

Data provenance is patent US8278469B2.
